# Test system: CDK9;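 also: KINOMEscan kinase panel screen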
# cond: concentration: 1 μM, replicates: in singlicate; n = 1
measurement.label: %Inh (%)
Record the value in %, omitting the unit from your answer.

Please report %Inh for the following compound: COC(=O)c1c(-c2ccccc2)c2cc(Br)ccc2c(=O)n1Cc1ccc(S(C)(=O)=O)cc1
3

Please report %Inh for the following compound: COC(=O)c1c(-c2ccccc2)c2cc(Br)ccc2c(=O)n1Cc1ccc(NC(=O)CCC(=O)O)cc1
0

Please report %Inh for the following compound: CCC(=O)c1c(-c2ccccc2)c2cc(Cl)ccc2c(=O)n1Cc1cc(C(=O)NC2CC2)n(C)n1
11

Attention now turns to another entry.
Please report %Inh for the following compound: O=C(Nc1n[nH]c2cc(-c3ccccc3F)ccc12)C1CC1
0

Just for reference, paper PMC5540273 is where these values come from.
